Origin of the recorded values: ChEMBL document CHEMBL1955752

- assay.target: Prostaglandin G/H synthase 2 (Homo sapiens, UniProt P35354)
- Sequence (P35354 whole entry): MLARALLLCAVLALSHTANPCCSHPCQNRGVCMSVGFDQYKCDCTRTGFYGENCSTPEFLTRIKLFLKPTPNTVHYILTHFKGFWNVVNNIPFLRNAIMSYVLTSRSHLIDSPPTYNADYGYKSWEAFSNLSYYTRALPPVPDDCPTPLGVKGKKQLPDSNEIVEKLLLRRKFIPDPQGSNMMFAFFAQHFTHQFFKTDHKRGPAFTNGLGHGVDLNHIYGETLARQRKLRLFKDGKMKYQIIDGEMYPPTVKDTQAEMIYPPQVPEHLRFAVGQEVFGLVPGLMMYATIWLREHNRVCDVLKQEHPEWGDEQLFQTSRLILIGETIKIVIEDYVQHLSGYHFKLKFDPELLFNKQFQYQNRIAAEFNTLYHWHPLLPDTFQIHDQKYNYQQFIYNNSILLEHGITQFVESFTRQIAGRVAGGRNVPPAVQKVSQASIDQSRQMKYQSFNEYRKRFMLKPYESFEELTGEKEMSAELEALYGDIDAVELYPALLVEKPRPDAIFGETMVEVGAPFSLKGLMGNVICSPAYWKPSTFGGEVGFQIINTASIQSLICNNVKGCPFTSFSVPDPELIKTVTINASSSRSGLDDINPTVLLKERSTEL
- assay.overview: Inhibition of human recombinant COX2 by fluorescence assay
Residues, ends and D or L forms follow the SMILES beside them.
// reported IC50 per item

{"molecule": "CSCC[C@H](NC(=O)[C@H](Cc1ccccc1)NC(=O)c1ccc(F)cc1)C(=O)N[C@@H](CCC(=O)O)C(=O)O", "value.modifier": ">", "IC50 / µM": 1000}
{"molecule": "O=C(N[C@@H](CS)C(=O)N[C@@H](CO)C(=O)O)c1ccc(F)cc1", "value.modifier": "=", "IC50 / µM": 15}
{"molecule": "CSCC[C@H](NC(=O)[C@H](Cc1c[nH]c2ccccc12)NC(=O)c1ccc(F)cc1)C(=O)N[C@@H](CCC(=O)O)C(=O)O", "value.modifier": "=", "IC50 / µM": 350}
{"molecule": "N[C@@H](Cc1c[nH]c2ccccc12)C(=O)N[C@@H](CS)C(=O)N[C@@H](CO)C(=O)O (H-Trp-Cys-Ser-OH)", "value.modifier": "=", "IC50 / µM": 21}
{"molecule": "CSCC[C@H](NC(=O)[C@H](Cc1ccccc1)NC(=O)c1ccc(F)cc1)C(=O)N[C@@H](CC(=O)O)C(=O)O", "value.modifier": "=", "IC50 / µM": 450}
{"molecule": "O=C(O)C[C@H](NC(=O)[C@H](Cc1ccc(O)cc1)NC(=O)c1ccc(F)cc1)C(=O)O", "value.modifier": "=", "IC50 / µM": 110}
{"molecule": "CSCC[C@H](NC(=O)[C@H](Cc1c[nH]c2ccccc12)NC(=O)c1ccc(F)cc1)C(=O)N[C@@H](CC(=O)O)C(=O)O", "value.modifier": "=", "IC50 / µM": 450}
{"molecule": "O=C(N[C@@H](Cc1ccc(O)cc1)C(=O)N[C@@H](CO)C(=O)O)c1ccc(F)cc1", "value.modifier": "=", "IC50 / µM": 140}
{"molecule": "O=C(N[C@@H](Cc1c[nH]c2ccccc12)C(=O)N[C@@H](CS)C(=O)N[C@@H](CO)C(=O)O)c1ccc(F)cc1", "value.modifier": "=", "IC50 / µM": 85}
